System: Collagen I (COL1A1) in LX-2 cells
PROTOCOL_DESCRIPTION: Collagen and Alpha-SMA in LX-2 (Western blot after TGF-β stimulation);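 also: cells serum-starved in 0.4% FBS before treatment, lysates analysed by Western blot, DMSO-only wells as blank and TGF-β alone as maximal induction control, three independent experiments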
Format: cell-based
CONDITION_DESCRIPTION: Homo sapiens, 4 ng/ml TGF-β for 48 hours, Collagen I normalized to GAPDH
pIC50: −log10 of the molar value.
RECORDED_METRIC: pIC50

# count of solved cases: 2
# COMPOUND, pIC50
records = [
    ("CC(=O)N1CCN(c2ccc(NC(=O)c3c[nH]c(-c4c(-c5ccc(F)cc5)ncn4CC(F)(F)F)n3)cc2)CC1 [Compound 191]", "9.00 to 10.00"),
    ("CN1CCN(c2ccc(NC(=O)c3c[nH]c(-c4c(-c5ccc(F)cc5)ncn4C(F)F)n3)cc2)CC1 [Compound 130]", "9.00 to 10.00"),
]

Proceeding to the next compound to report its pIC50.
Q. # query: pIC50 | item CC(C)n1cnc(-c2ccc(F)cc2)c1-c1cccc(C(=O)Nc2ccc(N3CCN(CCO)CC3)cc2)n1 [Compound 128] | system: Collagen I (COL1A1) in LX-2 cells
A. 9.00 to 10.00
